Data origin, for the record: patent US7335674B2

Entries and their measured melting point follow.
quantity-measured: melting point

>>> df
                                   compound  value_measured
0  CN(C)CCNC1=CC(=O)c2nc(-c3cccc4ccccc34)sc2C1=O [Example 9]   172 to 173 °C
1  CN(C)CCNC1=CC(=O)c2oc(-c3cccc(Br)c3)nc2C1=O [Example 17]   187 to 188 °C
2  Cc1cc(-c2nc3c(o2)C(=O)C(NCCN2CCCC2)=CC3=O)ccc1Br [Example 53]   171 to 172 °C
3  CN(C)CCNC1=CC(=O)c2nc(Cc3cccc4ccccc34)oc2C1=O [Example 44]   153 to 154 °C
4  CN(C)CCNC1=CC(=O)c2oc(-c3cccc(F)c3F)nc2C1=O [Example 20]   178 to 179 °C
5  CN(C)CCNC1=CC(=O)c2oc(-c3cc(F)ccc3F)nc2C1=O [Example 15]   181 to 182 °C
6  CN(C)CCNC1=CC(=O)c2nc(-c3ccc4ccccc4c3)sc2C1=O [Example 13]   167 to 168 °C
7  CCc1ccc(-c2nc3c(o2)C(=O)C(NCCN(C)C)=CC3=O)cc1 [Example 38]   151 to 152 °C
